pIC50: recorded values
# Subject Of Test: p38 (Homo sapiens, UniProt Q16539)
# Sequence (Q16539 whole entry): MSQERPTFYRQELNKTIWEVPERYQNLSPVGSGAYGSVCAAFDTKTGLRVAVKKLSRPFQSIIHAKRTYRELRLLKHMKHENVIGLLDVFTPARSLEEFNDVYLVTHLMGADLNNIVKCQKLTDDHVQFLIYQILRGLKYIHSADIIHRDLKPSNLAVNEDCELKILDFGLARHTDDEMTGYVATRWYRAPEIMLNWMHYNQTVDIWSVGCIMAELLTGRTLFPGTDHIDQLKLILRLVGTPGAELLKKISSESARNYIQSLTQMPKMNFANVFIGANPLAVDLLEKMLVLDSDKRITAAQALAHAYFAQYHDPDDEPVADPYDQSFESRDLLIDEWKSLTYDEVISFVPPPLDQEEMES
pIC50: −log10 of the molar value.

Look over these answered cases.
1) Cc1c(F)cc(C(=O)N[C@H](C)C(C)C)cc1-c1ccc(C(=O)NCC(C)(C)C)cc1C(=O)Nc1nccs1	< 5.80
2) Cc1c(F)cc(C(=O)N[C@@H](C)C(C)(C)C)cc1-c1ccc(C(=O)NCC(C)(C)C)cc1C(=O)Nc1nccs1	< 5.80
3) COC(=O)c1cc(C(=O)NCC(C)(C)C)ccc1-c1cc(C(=O)NCCO)ccc1C	< 4.80

**Q:** What pIC50 value was documented for this molecule, Cc1c(F)cc(C(=O)N[C@@H](C)C(C)C)cc1-c1ccc(C(=O)NCC(C)(C)C)cc1C(=O)Nc1nccs1 ?
**A:** < 5.80

----------
We begin with a simple list: items and their reported melting point.

The following compounds have reported results that may help.
1) Cc1c(F)cc(C(=O)N[C@@H](C)C(C)(C)C)cc1-c1ccc(C(=O)NCC(C)(C)C)cc1C(=O)Nc1nccs1	160 to 165 °C
2) Cc1c(F)cc(C(=O)NCC(C)C)cc1-c1ccc(C(=O)NCC(C)(C)C)cc1C(=O)Nc1nccs1	> 194 °C (dec.)

Pending compound:
**Q:** Report melting point for Cc1c(F)cc(C(=O)N[C@H](C)C(C)(C)C)cc1-c1ccc(C(=O)NCC(C)(C)C)cc1C(=O)Nc1nccs1 please.
**A:** > 125 °C (dec.)

----------
# Subject Of Test: Recombinant human p38α (Homo sapiens)
# Construct: His
# Sequence (Q16539 whole entry): as above
# Run Description: HTRF Assay: Time-Resolved Fluorescence Resonance Energy Transfer Kinase Assay
# Measurement Setup: TR-FRET; MKK6-activated p38α 100 pM, biotinylated-GST-ATF2 substrate
Measured Endpoint: IC50

Take a look at these entries with their results.
1) Cc1c(F)cc(C(=O)N[C@@H](C)C(C)(C)C)cc1-c1ccc(C(=O)NCC(C)(C)C)cc1C(=O)Nc1nccs1 [Example 25]	> 1580 nM
2) Cc1c(F)cc(C(=O)N[C@H](C)C(C)C)cc1-c1ccc(C(=O)NCC(C)(C)C)cc1C(=O)Nc1nccs1 [Example 13]	> 1580 nM
3) Cc1c(F)cc(C(=O)N[C@H](C)C(C)(C)C)cc1-c1ccc(C(=O)NCC(C)(C)C)cc1C(=O)Nc1nccs1 [Example 10]	> 1580 nM
4) Cc1ccc(C(=O)NCCO)cc1-c1ccc(C(=O)NCC(C)(C)C)cc1C(=O)O [Example 86]	> 25100 nM
5) Cc1c(F)cc(C(=O)N[C@@H](C)C(C)C)cc1-c1ccc(C(=O)NCC(C)(C)C)cc1C(=O)Nc1nccs1 [Example 12]	> 1580 nM

**Q:** Given Cc1c(F)cc(C(=O)N[C@H](C)CO)cc1-c1ccc(C(=O)NCC(C)(C)C)cc1C(N)=O [Example 75] , state its recorded IC50.
**A:** > 1580 nM

----------
Recorded melting point values for a group of molecules are listed next.

Example entries and their recorded answers appear below.
1) Cc1c(F)cc(C(=O)NCC2CC2)cc1-c1ccc(C(=O)NCC(C)(C)C)cc1C(=O)Nc1nccs1 [Example 15]	179 to 183 °C
2) Cc1c(F)cc(C(=O)N[C@H](C)C(C)C)cc1-c1ccc(C(=O)NCC(C)(C)C)cc1C(=O)Nc1nccs1 [Example 13]	240 to 244 °C
3) Cc1c(F)cc(C(=O)NCCC(C)C)cc1-c1ccc(C(=O)NCC(C)(C)C)cc1C(=O)Nc1nccs1 [Example 16]	159 to 164 °C

Let us move to another entry and its melting point.
**Q:** Endpoint output: melting point of Cc1c(F)cc(C(=O)N[C@@H](C)C(C)C)cc1-c1ccc(C(=O)NCC(C)(C)C)cc1C(=O)Nc1nccs1 [Example 12] . Value?
**A:** 234 to 239 °C

Origin of values: patent US20080051416A1
